B1: HESX1 (parent)
chain: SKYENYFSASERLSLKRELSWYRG

variants of: B1; assay: protein stability index of a GFP-peptide fusion (GPS, HEK-293T) (PSI 1-6); higher = more stable; settings: c terminus: a fixed tail appended;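 note: lentivirally expressed fusions sorted by FACS into six bins by GFP to DsRed ratio, PSI derived from sequencing read proportions per bin multiplied by bin number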
measured.quantity: protein stability index
Give bare numbers.

Below, each entry is followed by its recorded protein stability index result.
SKYENTFSASERLSLKRELSWYRG [Y6T]	2.63
SKYENYFSASERLDLKRELSWYRG [S14D]	3.59
SKYENYFSASETLSLKRELSWYRG [R12T]	2.88
SHYENYFSASERLSLKRELSWYRG [K2H]	1.8
SKYENLFSASERLSLKRELSWYRG [Y6L]	2.85
SKYENYFSASHRLSLKRELSWYRG [E11H]	2.76
SKYPNYFSASERLSLKRELSWYRG [E4P]	2.06
SKYENYFSASERLSLKRELSGYRG [W21G]	1.48
SKYENYFSHSERLSLKRELSWYRG [A9H]	1.59
SGYENYFSASERLSLKRELSWYRG [K2G]	2.31

Would you be so kind as to report protein stability index for each listed record?
1. SKYENYFSASERLSLKRELSWRRG [Y22R]
2. SKYENYFSASERLSLKRHLSWYRG [E18H]
3. SKYENYFSASERLSLKRELTWYRG [S20T]
4. SKYENYFSRSERLSLKRELSWYRG [A9R]
5. SKYENYYSASERLSLKRELSWYRG [F7Y]
6. SKYENYFSASERLSLKRRLSWYRG [E18R]

OUTPUT:
1.9
1.77
3.72
1.99
2.63
2.5

For each of the variants below, state protein stability index.
1. SKYENYFSASERLSLKKELSWYRG [R17K]
2. SKYENYFSASERLSLKRELSFYRG [W21F]
3. SKYENYFSAWERLSLKRELSWYRG [S10W]

OUTPUT:
1. 2.27
2. 2.29
3. 2.31

Batch of 4 variants: report protein stability index for each.
1. SKYENYFSAEERLSLKRELSWYRG [S10E]
2. SKYENYFSASERLSMKRELSWYRG [L15M]
3. SKYENYFSASERLPLKRELSWYRG [S14P]
4. SKYENNFSASERLSLKRELSWYRG [Y6N]

OUTPUT:
1: 3.04; 2: 1.72; 3: 2.96; 4: 2.79

# per-item lookup of protein stability index; items listed below
1. SKYENYFSASERLSLKWELSWYRG [R17W]
2. SKYENYFSQSERLSLKRELSWYRG [A9Q]
3. SKYENYFSAPERLSLKRELSWYRG [S10P]
4. SKYENYFSASVRLSLKRELSWYRG [E11V]
5. SKYENYFSASERLSVKRELSWYRG [L15V]
6. SKYENYFSASERMSLKRELSWYRG [L13M]

OUTPUT:
1: 1.21; 2: 2.01; 3: 1.95; 4: 2.37; 5: 2.06; 6: 1.63
